# Test System: DNA gyrase (Escherichia coli, UniProt P0AES4+P0AES6)
# Experiment Description: Inhibition of DNA gyrase supercoiling in Escherichia coli.
The entries below are paired with their reported IC50.
Return type: number; implicit unit µM.

Example entries begin here.
[[record]]
compound = "O=c1oc2cc(O)c(O)cc2c2cc(F)ccc12"
quantitative_readout = 1500

[[record]]
compound = "O=C1c2cc(O)c(O)cc2-c2cc(O)c(O)cc21"
quantitative_readout = 53.2

[[record]]
compound = "O=c1oc2c(O)c(O)cc3c(=O)oc4c(O)c(O)cc1c4c23 [ELLAGIC ACID]"
quantitative_readout = 156

[[record]]
compound = "O=c1oc2c(Cl)c(Cl)ccc2c2cc(O)c(O)cc12"
quantitative_readout = 942

[[record]]
compound = "O=c1oc2c(O)c(O)ccc2c2cc(F)ccc12"
quantitative_readout = 447

[[record]]
compound = "O=c1oc2c(O)c(O)ccc2c2ccc(O)cc12"
quantitative_readout = 328

[[record]]
compound = "O=c1oc2cc(O)c(O)cc2c2cc(O)c(O)cc12"
quantitative_readout = 307

[[record]]
compound = "Cc1cc(O)c(O)c2oc(=O)c3cc(O)c(O)cc3c12"
quantitative_readout = 511


Attention now shifts to the item below.
Query: What measured IC50 goes with ONC1c2cc(O)c(O)cc2-c2cc(O)c(O)cc21 ?
Reply: 7.66
